- Tested on: PRKD3
- Experimental setup: concentration: 1 μM, replicates: in singlicate; n = 1;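 also: KINOMEscan kinase panel screen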
Metric name: %Inh (%)
Just the number in %, nothing appended.

Sample records with %Inh:
- CS(=O)(=O)CCNCc1nc(-c2ccc3ncnc(Nc4ccc(OCc5ccccc5)c(Cl)c4)c3c2)cs1.Cl: 100
- Fc1ccc(-c2nc[nH]c2-c2ccncc2)cc1: 0
- Cc1cccc2c(-c3ccncn3)c(-c3ccc(F)cc3)nn12: 32
- O=C(Nc1n[nH]c2cc(-c3ccsc3)ccc12)C1CC1: 0
- Cc1ccc(NC(=O)Nc2ccc(Cl)cc2)cc1-c1ccc(C(=O)Nc2ccncc2)cc1: 35
- FC(F)(F)c1ccccc1-c1cc(-c2c[nH]nc2-c2ccccn2)ccn1: 100
- CNc1nc(-c2ccc3c(N)n[nH]c3c2)cc(N2C[C@@H](C(=O)NC3CCCCC3)OC[C@H]2C)n1: 0

Let us move to another entry and its %Inh.
What the record says about Cc1ccc(NC(=O)Nc2ccc(Cl)c(C(F)(F)F)c2)cc1-c1ccc(C(=O)Nc2ccncc2)cc1 : %Inh is 13

###

Here the recorded %Inh is given for each entry.
- Test system: MLK3
- Experimental setup: concentration: 1 μM, replicates: in singlicate; n = 1
Just the number in %, nothing appended.

Sample records with %Inh:
* COc1ccc(CSc2nnc(-c3ccc4nccn4c3)o2)cc1C(F)(F)F | 3
* CCn1c(-c2ccccc2)nc2cnccc21 [SB-733416] | 7
* CN1c2ccc(-c3ccc(C(N)=O)cc3)cc2-c2[nH]ncc2S1(=O)=O | 3

What the record says about CNC(=O)c1ccc(C)c(-n2c(C)cc(OCc3ccc(F)cc3F)c(Br)c2=O)c1 : %Inh is 19

What the record says about COc1ccc(Nc2nccc(N3CCC(NC(=O)C(C)c4ccc(Cl)cc4)C3)n2)cc1 (stereo not drawn) [GSK1379735] : %Inh is 21

What the record says about Fc1ccc(-c2nc[nH]c2-c2ccncc2)cc1 [SB-217360] : %Inh is 1

What the record says about COC(=O)C(NC(=O)NC1CCN(c2ccnc(Nc3ccc(F)cc3)n2)C1)c1ccccc1 (stereo not drawn) [GSK1379712] : %Inh is 6

What the record says about Cn1cncc1C(=O)NC1CCN(c2ccnc(Nc3ccc(F)cc3)n2)C1 (stereo not drawn) [GSK1379717] : %Inh is 0

What the record says about COc1ccc2cc(-c3nc(-c4ccccc4C(C)C)[nH]c3-c3ccncc3)ccc2c1 [SB-660566] : %Inh is 0

###

- Test system: LYN
- Experimental setup: concentration: 1 μM, replicates: in singlicate; n = 1
Metric name: %Inh (%)
Just the number in %, nothing appended.

Sample records with %Inh:
• Cc1nccc(-c2c(-c3ccc(F)cc3)ncn2CCCN2CCOCC2)n1.Cl = 9
• COc1ccc(Nc2nccc(N3CCC(NC(=O)c4cc5ccccc5s4)C3)n2)cc1 (stereo not shown) = 0
• COc1ccc2cc(-c3nc(-c4ccccc4C(C)C)[nH]c3-c3ccncc3)ccc2c1 = 20

Let us move to another entry and its %Inh.
What the record says about CNc1nc(-c2ccc3c(N)n[nH]c3c2)cc(N2C[C@@H](C(=O)NC3CCCCC3)OC[C@H]2C)n1 : %Inh is 0

###

- Tested on: PAK7
- Experimental setup: concentration: 1 μM, replicates: in singlicate; n = 1
Metric name: %Inh (%)
Just the number in %, nothing appended.

- O=C(Nc1n[nH]c2nc(-c3cccs3)c(Br)cc12)C1CC1: 0
- COc1cccc(CNC(=O)NC2CCN(c3ccnc(Nc4ccc(F)cc4)n3)C2)c1 (stereo not drawn): 0
- Cc1c(Cn2c(C)c(C)n3c(=O)cc(N4CCOCC4)nc23)cccc1C(F)(F)F: 0
- O=C1NC(=O)C(c2ccc(Cl)cc2)=C1Nc1cccc(Cl)c1: 0

What the record says about COC(=O)c1cccc(NC(=O)NC2CCN(c3ccnc(Nc4ccc(OC)cc4)n3)C2)c1 (stereo not drawn) : %Inh is 0

What the record says about COc1ccc(Nc2nccc(N3CCC(NC(=O)C(C)c4ccc(Cl)cc4)CC3)n2)cc1 (stereo not drawn) : %Inh is 22

What the record says about Cc1ccc(NC(=O)Nc2ccc(Cl)cc2)cc1-c1ccc(C(=O)Nc2ccncc2)cc1 : %Inh is 0

What the record says about COC(=O)C(NC(=O)NC1CCN(c2ccnc(Nc3ccc(F)cc3)n2)C1)c1ccccc1 (stereo not drawn) : %Inh is 2

What the record says about CCn1c(-c2c(N)noc2C)nc2cnccc21 : %Inh is 0

###

- Test system: NDR1
- Construct: gene STK38
- Experimental setup: concentration: 1 μM, replicates: in singlicate; n = 1
Metric name: %Inh (%)
Just the number in %, nothing appended.

Sample records with %Inh:
• O=C1NC(=O)C(c2ccc(Cl)cc2)=C1Nc1cccc(Cl)c1 = 12
• Cc1ccc(NC(=O)Nc2ccc(Cl)c(C(F)(F)F)c2)cc1-c1ccc(C(=O)Nc2ccncc2)cc1 = 23
• COc1cccc(CNC(=O)NC2CCN(c3ccnc(Nc4ccc(F)cc4)n3)C2)c1 (stereo not shown) = 0

Let us move to another entry and its %Inh.
What the record says about CS(=O)(=O)Cc1ccc(Nc2nccc(-c3c(-c4cccc(NC(=O)C5CCCCC5)c4)nn4ncccc34)n2)cc1 : %Inh is 0

###

- System: TXK
- Experimental setup: concentration: 1 μM, replicates: in singlicate; n = 1
Here the recorded %Inh is given for each entry.
Just the number in %, nothing appended.

Sample records with %Inh:
• COc1ccc(Nc2nccc(-c3ccc(NC(=O)c4cc5cc(F)ccc5[nH]4)cc3)n2)cc1 [GSK1229496] = 0
• COc1ccc(Nc2nccc(N3CCC(NC(=O)C(C)c4ccc(Cl)cc4)CC3)n2)cc1 (stereo not drawn) [GSK1379812] = 0
• O=C1NC(=O)C(c2ccc(Cl)cc2)=C1Nc1ccc(O)cc1 [SB-340867] = 18

What the record says about COc1ccc(-c2coc3ccc(-c4nnc(C)o4)cc23)cc1 : %Inh is 0

What the record says about CC(=O)c1c(C)c2cnc(Nc3ccn(C)n3)nc2n(C2CCCC2)c1=O : %Inh is 0

###

Here the recorded %Inh is given for each entry.
- Test system: NEK2
- Experimental setup: concentration: 1 μM, replicates: in singlicate; n = 1
Just the number in %, nothing appended.

• O=C1NC(=O)C(c2ccc(Cl)cc2)=C1Nc1cccc(Cl)c1 [SB-317651] = 0
• O=C(Nc1n[nH]c2nc(-c3cccs3)c(Br)cc12)C1CCCC1 [SB-743341] = 0
• Cc1nccc(-c2c(-c3ccc(F)cc3)ncn2CCCN2CCOCC2)n1.Cl [SB-282975] = 4
• Cc1cnc(N)c(/C=C/c2cncc(C(=O)NCCc3ccc(Cl)cc3Cl)c2)c1.Cl [GSK190937] = 10
• O=C(Nc1n[nH]c2cc(-c3ccsc3)ccc12)C1CC1 [SB-732932] = 21
• Fc1ccc(-c2nn3cccc(F)c3c2-c2ccncc2)cc1 [GW475620] = 0
• Nc1ncnc2occ(-c3ccc4c(c3)CCN4C(=O)Cc3cc(F)ccc3F)c12 [GSK2645446] = 70

# value of %Inh, NEK2, item CCn1c(-c2ccccc2)nc2cnccc21 [SB-733416] = 0

###

Here the recorded %Inh is given for each entry.
- Test system: FGFR3
- Experimental setup: concentration: 1 μM, replicates: in singlicate; n = 1
Just the number in %, nothing appended.

Sample records with %Inh:
• Cc1ccc(NC(=O)Nc2ccccc2)cc1-c1ccc(C(=O)Nc2ccncc2)cc1 [GSK1398471] = 18
• Cn1cncc1C(=O)NC1CCN(c2ccnc(Nc3ccc(F)cc3)n2)C1 (stereo not drawn) [GSK1379717] = 7
• Cc1ccccc1Cn1ccn2c(=O)cc(N3CCOCC3)nc12 [GSK2269905] = 0
• O=c1cc(N2CCOCC2)nc2n(Cc3ccccc3F)ccn12 [GSK2297428] = 10
• O=C(Nc1n[nH]c2nc(-c3cccs3)c(Br)cc12)C1CCCC1 [SB-743341] = 2

What the record says about CC[C@@H]1CO[C@H](C(=O)Nc2ccccc2)CN1c1cc(-c2ccc3c(N)n[nH]c3c2)nc(NC)n1 [GSK2376236] : %Inh is 41

What the record says about COc1ccc(CSc2nnc(-c3ccc4ncsc4c3)o2)cc1C(F)(F)F : %Inh is 0

What the record says about Cc1c(Cn2c3ccccc3n3c(=O)cc(N4CCOCC4)nc23)cccc1C(F)(F)F [GSK2306394] : %Inh is 0

What the record says about Cn1cnc2c(N)ncnc21 [SKF-97623] : %Inh is 0

###

- Test system: MARK2
- Experimental setup: concentration: 1 μM, replicates: in singlicate; n = 1
Param label: returns true (1) when %Inh < 6%, returns false (0) otherwise, including exact equality.

• Cc1ccc(NC(=O)Nc2ccc(Cl)c(C(F)(F)F)c2)cc1-c1ccc(C(=O)Nc2ccncc2)cc1 = false (0)
• CC[C@@H]1CO[C@H](C(=O)Nc2ccccc2)CN1c1cc(-c2ccc3c(N)n[nH]c3c2)nc(NC)n1 = true (1)
• COc1ccc(-c2coc3ccc(-c4nnc(C)o4)cc23)cc1 = false (0)

input: In the record for CCc1ccc(-c2ccc3c(c2)-c2n[nH]cc2S(=O)(=O)N3C)cc1 , is %Inh less than 6%?
output: true (1)

input: In the record for CC(C)c1ccc(O)cc1Nc1ccnc2ccc(C(F)(F)F)cc12 , is %Inh less than 6%?
output: true (1)

input: In the record for Cc1c(Cn2c(C)c(C)n3c(=O)cc(N4CCOCC4)nc23)cccc1C(F)(F)F , is %Inh less than 6%?
output: true (1)

input: In the record for COc1cccc(C2=C(Nc3cc(Cl)c(O)c(Cl)c3)C(=O)NC2=O)c1 , is %Inh less than 6%?
output: true (1)

input: In the record for O=C(Nc1n[nH]c2nc(-c3ccco3)c(Br)cc12)C1CCN(Cc2ccccc2)C1.O=C(O)[C@H](O)[C@@H](O)C(=O)O (stereo not shown) , is %Inh less than 6%?
output: false (0)
